Test system: extracellular L. donovani promastigotes
Procedure Text: Effect of compounds on promastigote viability (resazurin assay)
Format: cell-based, Leishmania donovani
Assay Conditions: Leishmania donovani; 72-hour incubation, resazurin assay (Table 3); read-out: L. donovani Extracellular promastigotes MIC50
Recorded measurements of MIC50, one per entry

The examples below pair each entry with its known result.
>>> print(df.to_string())
                                   molecule  recorded_value
0  N#Cc1ccc(CNCC(=O)Nc2ccc(-n3nc(C(F)(F)F)cc3C3CCCCC3)cc2)cc1         22.1 µM
1  O=C(CNCc1cccc(F)c1)Nc1ccc(-n2cc(C(F)(F)F)nc2-c2ccc(-c3ccc(C(F)(F)F)cc3)cc2)cc1          6.4 µM

Query: Name the recorded MIC50 of the item N#Cc1cccc(CN2CCC(Nc3ccc(-n4nc(C(F)(F)F)cc4-c4ccc(-c5ccc(C(F)(F)F)cc5)cc4)cc3)C2)c1 (stereo not shown) in your answer.
Reply: > 200 µM

Query: Name the recorded MIC50 of the item NCC(=O)Nc1ccc(-n2nc(C(F)(F)F)cc2-c2ccc3c(ccc4ccccc43)c2)cc1 [AR-12, reference compound] in your answer.
Reply: 2.2 µM
